Data credit: a melting point compilation (Tetko et al.; mined from patent text by program, amines drawn as free bases though some values may be those of a salt)

Exercise: state measured melting point for each of the compounds provided.

Please review the entries below; each comes with its answer.
* COc1cc(C(=O)O)ccc1Cc1cn(C(C)C(=O)N(C)C)c2ccc(C(=O)NCC3CCCC3)cc12 (configuration not stated) | 146 to 147 °C
* CCONCCCC=C1C(=O)CC(c2ccc(Cl)cc2)CC1=O (configuration not stated) | 77 °C
* CN1CCNCCNCCCNCCNCC1 | 85 to 87 °C
* O=C(C=CCN1CCOCC1)Nc1cc2c(Nc3ccc(F)c(Cl)c3)ncnc2cc1OC1CCCC1 | 143 °C
* O=C1C(=O)c2ccccc2C2=C1SCC1(CCN(CC(O)COc3ccc4ccccc4c3)CC1)O2 (configuration not stated) | 164 to 167 °C
* O=S(=O)(c1ccc(Cl)cc1)N1CCCC1c1ccc(F)cc1 (racemic) | 118 °C
* CCN1C=C(N=[N+]=[N-])N=C(C2CC2)c2ccccc21 | 158 to 160 °C
* CC(C)(C)OC(=O)NCC(N)c1c[nH]c2ccc(Br)cc12 (configuration not stated) | 151 °C
* O=C(O)COc1coc2ccccc2c1=O | 154 to 164 °C
* O=S(=O)(Nc1cccc(CCOCc2csc(-c3ccccc3)n2)c1)C(F)(F)F | 112 to 113 °C

Give melting point for each listed item.
1. COc1ccc(O)c(C2(CCCCSC)Sc3ccccc3N(C)C2=O)c1 (configuration not stated)
2. [N-]=[N+]=C(c1ccccc1)c1ccc(COCCNC(=O)Nc2ccccc2)cc1
3. CCC#CCOc1cc(/C=C/C(=O)Nc2ccccc2C(=O)O)ccc1OC
4. CC(=O)Nc1ccc(C(=O)O)c2c1OCCO2

*A*
148 to 150 °C
111 to 115 °C
124 to 125 °C
233 °C

Give melting point for each listed item.
1. CSc1ccc(-c2c(Cl)ncn2-c2ccc(S(C)(=O)=O)cc2)cc1
2. CCCCCCCCCCCCCCCCCC1OC1C (configuration not stated)
3. Cc1ccccc1-c1ccc(C(=O)N2Cc3ccc(C(=O)NCc4cccnc4)n3Cc3ccccc32)cc1
4. O=C(O)CCC(O)c1ccc(CCNS(=O)(=O)c2ccc(Cl)cc2)cc1 (configuration not stated)
5. Cc1c(-c2cccnc2)n(CCOc2ccc(C(=O)O)cc2)c2ccccc12
6. CCCCCCCCCOc1ccc(-c2ccc(C3CCC(C#N)(CCCCCCCCC)CC3)cc2)cc1 (configuration not stated)
7. CN1CCCC1Cc1ccc(N)cc1 (configuration not stated)
8. OCC1OC(n2cnc3c(NCC(c4ccccc4)c4ccc(F)cc4)nc(Cl)nc32)C(O)C1O (configuration not stated)

*A*
1: 216 to 220 °C; 2: 40 °C; 3: 176 to 177 °C; 4: 191 °C; 5: 190 to 193 °C; 6: 86 °C; 7: 59 to 61 °C; 8: 120 to 123 °C

Give melting point for each listed item.
1. O=C(C=Cc1ccc(F)cc1)c1c(F)c(F)c(F)c(F)c1F
2. NS(=O)(=O)c1ccc(N2C(=O)CN(c3ccccc3)C2=O)c(Cl)c1
3. O=C(O)CCCOC(c1ccccc1)(c1ccccc1)c1ccccc1
4. O=C(Nc1c(Cl)cnn1-c1c(F)c(F)c(C(F)(F)F)c(F)c1F)C(Cl)Cl
5. Cc1ccc(-c2ccc(-c3nnnn3CCCCCCc3cccnc3)cc2)cc1C

*A*
1. 80 to 84 °C
2. 241 to 243 °C
3. 137 to 140 °C
4. 115 to 116 °C
5. 101 to 103 °C

---

Exercise: state measured melting point for each of the molecules provided.

Please review the entries below; each comes with its answer.
* Cc1c(Cl)c(Cl)c(Cl)c(Cl)c1CCl | 102 to 103 °C
* Cc1ccc(S(=O)(=O)N2C(=O)c3cc4c(cc3[C@H]3[C@@H](C=O)[C@H](O[Si](C)(C)C(C)(C)C)[C@H]5OC(C)(C)O[C@H]5[C@@H]32)OCO4)cc1 | > 200 °C
* COC(=O)Cc1cc(OC)ccc1O | 69 to 70 °C

Now turn to the next molecule.
*Q* melting point lookup needed for `Nc1ccc(F)c(Cl)c1F` , thanks.
*A* 58 °C

---

Exercise: state measured melting point for each of the molecules provided.

Please review the entries below; each comes with its answer.
* Cc1cc(N)c2cc(NC(=O)C=Cc3ccccc3C(F)(F)F)ccc2n1 | 272 to 273 °C
* CCON=C(C(=O)OC)c1nccc(N)n1 | 105 to 110 °C
* FC(F)c1nc2ccccc2n1-c1nc(N2CCOCC2)nc(N2CCOCC2)n1 | 211 to 214 °C

Now turn to the next molecule.
*Q* melting point lookup needed for `O=c1[nH]c(=O)n(COC(CO)CO)cc1Cc1cccc(OCc2ccccc2)c1` , thanks.
*A* 113 °C

---

Exercise: state measured melting point for each of the compounds provided.
Answers are plain numbers, in °C.

- CCOC(=O)c1ccc(OCCCC2CCN(c3ccc(-c4ccc(F)cc4)nn3)CC2)cc1: 160
- CCCCc1cc(OCc2ccc(-c3ccccc3C(=O)OC)cc2)c2ccccc2n1: 105

Now turn to the next compound.
*Q* melting point lookup needed for `COc1cccc(-c2ccc(C(=O)N(Cc3cccc(O)c3)C3CC3)s2)c1F` , thanks.
*A* 150

---

Exercise: state measured melting point for each of the compounds provided.

Please review the entries below; each comes with its answer.
- CCOC(=O)C=C(Nc1ccc(O)c(=O)cc1)C(=O)OCC: 108 °C
- COc1ccc2[nH]cc(CCC(=O)O)c2c1: 80 °C
- CC1(C)CC(=C(c2ccc(O)cc2)c2ccc(-c3ccoc3)cc2)CC(C)(C)C1: 128 to 129 °C
- COC(=O)c1ccc2ncccc2c1C(=O)OC: 124 to 125 °C
- CC(=O)Nc1ccc2c(c1)C(=O)CCC2: 165 to 166 °C

Give melting point for each listed item.
1. O=C(Nc1ccc(F)cc1)c1ccccc1-c1cccc(F)c1
2. NC(=O)N1CCC(c2nn(-c3ccccc3)c3cc(F)ccc23)CC1
3. COC(=O)CCCc1cc2nc(Cl)ccc2n1S(=O)(=O)c1cccc(-c2nccs2)c1
4. CCCN(SCNC(=O)ON=C(C)SC)P(=S)(OCC)OCC

*A*
["147 to 148 °C", "149 to 151 °C", "82 to 86 °C", "68 to 69 °C"]

*Q* melting point lookup needed for `COc1cccc2c1C(C)(C)C(=O)N2` , thanks.
*A* 143 to 144 °C

---

Exercise: state measured melting point for each of the compounds provided.

• CCCc1nc2c(N)nc3cc(-c4ccc(F)cc4CN)ccc3c2s1 = 181 to 184 °C
• CCOc1ccc(-c2c(C)c3cc(O)ccc3n2Cc2ccc(OCCN3CCCCCC3)cc2)cc1 = 133 to 135 °C
• COc1cccc(CN(Cc2cccc(OC)c2)c2ccc(-c3ccccc3)cc2)c1 = 98 to 98.5 °C
• N#Cc1nn(-c2c(Cl)cc(C(F)(F)F)cc2Cl)c(N)c1-c1cccc2ccccc12 = 208 °C
• O=C1c2ccccc2C(=O)N1CCCCc1ccccc1 = 87 to 90 °C
• CC(C)N(C)c1ncc(C2CC2(C)C(N)=O)cc1Cl (stereo unspecified) = 86 to 87 °C
• CS(=O)(=O)Nc1cccc(Nc2nc(NCCN3CCOCC3)c3nc[nH]c3n2)c1 = 233 to 237 °C
• CC1(c2ccccc2)CN(C(=O)Nc2ccc(Cl)cc2)N=C1c1ccc(Cl)cc1 (stereo unspecified) = 151 to 158 °C
• CCOC(=O)c1cnc2sc(SCc3ccccc3)nn2c1=O = 129 to 132 °C
• O=S(=O)(CCCCl)Nc1cccc(OCc2ccc3ccccc3n2)c1 = 116 to 117 °C

*Q* melting point lookup needed for `C[C@H]1CC[C@H]2C(C)(C)[C@@H](O)[C@@H](OS(=O)(=O)c3ccccc3)C[C@]23Oc2c(c(O)cc4c2CNC4=O)C[C@]13C` , thanks.
*A* 142 to 144 °C

---

Exercise: state measured melting point for each of the compounds provided.

Give melting point for each listed item.
1. CCCc1c(OCCCOc2ccc3c(c2CCC)OC(C(=O)OC)CC3)ccc(C(C)=O)c1O (configuration not stated)
2. Nc1cccc(Cn2c(-c3ccc(-c4ccccc4)cc3)ccc2-c2ccccc2Cl)n1

*A*
1. 70 to 72 °C
2. 181 to 185 °C

---

reported.metric: melting point

Please review the entries below; each comes with its answer.
* CCN(CC)CCCCC(=O)c1ccc2c(c1)C(=O)c1cc(C(=O)CCCCN(CC)CC)ccc1-2 | 108 to 110 °C
* CC(=O)NCCn1c(O)nc2ccc(Cl)nc21 | 200 to 220 °C
* CC(C)(C)OC(=O)N[C@@H](Cc1ccc(OS(=O)(=O)C(F)(F)F)cc1)C(=O)OC(c1ccccc1)c1ccccc1 | 110 to 112 °C
* CCCc1nc2c(N)nc3cc(-c4cncc(CO)c4)ccc3c2n1CC(C)(C)O | 225 to 226 °C
* CNC(=O)C(C)Oc1ncn(-c2cccc(C(F)(F)F)c2)n1 (stereo not given) | 137 to 139 °C

Give melting point for each listed item.
1. CC(C(=O)O)c1ccc2c(c1)CC(C(C)C)C2 (stereo not given)
2. C=C(C)Cn1c(=O)n(C)c(=O)c2c(Sc3ccccn3)n(Cc3cccc4ccccc34)nc21
3. Cc1c(NC(=O)CC(C)(C)C)c(C)c(C(C)(C)O)c2c1C(c1ccc(C(C)C)cc1)CO2 (stereo not given)
4. O=C(Cl)c1ccc(Cl)c(S(=O)(=O)NC2CCCCC2)c1
5. CCCc1c(-c2ccc(C(=O)OC)cc2)oc2cc(NC(C)=O)ccc2c1=O
6. O=C(Nc1ccc([N+](=O)[O-])cc1O)Nc1cc(Cl)ccc1O
7. COC(C)CN(C)CC=CC(=O)Nc1cc2c(Nc3ccc(F)c(Cl)c3)ncnc2cc1OCC1CC1 (stereo not given)
8. CN1Cc2[nH]c3ccccc3c2C1

*A*
["90 to 91.5 °C", "118 to 120 °C", "133 to 134 °C", "119 °C", "244 °C", "193 to 194 °C", "123 to 125 °C", "110 to 120 °C"]

Give melting point for each listed item.
1. CN1C=Cc2ccccc2CC1=O
2. O=C1C2=C(CCCC2)C(Cl)N1c1ccc(Cl)cc1F (stereo not given)
3. COc1ccc(-c2c(C)cc3c(O)cc(C)nn23)c(C)c1
4. Fc1c(F)c(F)c(C(Cl)=NNc2ccccc2)c(F)c1F
5. O=C(OCC1CCCCC1)c1ncn2c1[C@@H]1CCCN1C(=O)c1c(Cl)cccc1-2
6. CCCCCc1nc2cc(Cl)c(S(N)(=O)=O)cc2[nH]1
7. COC1C(OC(=O)N2CCOCC2)CCC2(CO2)C1C1(C)OC1CCOCc1ccccc1 (stereo not given)

*A*
1. 81 to 82 °C
2. 89 to 90 °C
3. 234 to 237 °C
4. 117 to 118 °C
5. 123 to 124 °C
6. 183 to 185 °C
7. 96 to 97 °C
